Taken from patent US20260325654A1.

Below: a set of entries, each annotated with reported IC50.
# System: AGS
# Measurement Description: CellTiter-Glo Reagent cancer cell line proliferation assay, AGS
# Type: cell-based, human
# Condition Set: Homo sapiens, 24 h, KRAS(G12D) heterozygous
Counter-ions that a name gives are not always drawn.
Property Name: IC50

Compound: CN1C[C@H](N2CCC(C(=O)NCCOc3ccc4c(c3)C(=O)N(C3CCC(=O)NC3=O)C4=O)CC2)C[C@@H]1COc1nc(N2CC3CCC(C2)N3)c2cnc(-c3cc(O)cc4ccccc34)c(F)c2n1 (stereo partly drawn)
Property Name: IC50
Observed: > 1000 nM

Compound: C#Cc1c(F)ccc2cc(O)cc(-c3ncc4c(N5CC6CCC(C5)N6C(=O)CC(C)(C)C#N)nc(OCC5(CN6CCN(CC7CCN(c8ccc9c(c8)CN(C8CCC(=O)NC8=O)C9=O)CC7)CC6)CC5)nc4c3F)c12 (stereo not drawn)
Property Name: IC50
Observed: < 100 nM

Compound: C#Cc1c(F)ccc2cc(O)cc(-c3ncc4c(N5C[C@H]6CC[C@@H](C5)N6)nc(OCC5(CN6CC(C#Cc7ccc8c(c7)CN(C7CCC(=O)NC7=O)C8=O)C6)CC5)nc4c3F)c12 (stereo partly drawn) [Compound 90, formate]
Property Name: IC50
Observed: < 100 nM

Compound: C#Cc1c(F)ccc2cc(O)cc(-c3ncc4c(N5CC6CCC(C5)N6C(=O)NC5CCC5)nc(OCC5(CN6CCN(CC7CCN(c8ccc9c(c8)CN(C8CCC(=O)NC8=O)C9=O)CC7)CC6)CC5)nc4c3F)c12 (stereo not drawn)
Property Name: IC50
Observed: < 100 nM

Compound: C#Cc1c(F)ccc2cc(O)cc(-c3nc(OC)c4c(N5CC6CCC(C5)N6C(=O)C[C@@H](C)C#N)nc(OCC5(CN6CCN(CN7CCC(N8Cc9cc%10c(cc9C8)C(=O)N(C8CCC(=O)NC8=O)C%10)CC7)CC6)CC5)nc4c3F)c12 (stereo partly drawn)
Property Name: IC50
Observed: < 100 nM

Compound: C#Cc1c(F)ccc2cc(O)cc(-c3nc(OC)c4c(N5CC6CCC(C5)N6C(=O)CC(C)C#N)nc(OCC5(CN6CCN(CC7CCN(c8cccc(NC9CCC(=O)NC9=O)c8)CC7)CC6)CC5)nc4c3F)c12 (stereo not drawn)
Property Name: IC50
Observed: < 100 nM

Compound: C#Cc1cccc2cccc(-c3ncc4c(N5CC6CCC(C5)N6)nc(OC[C@H]5CC[C@@H](CN6CCN(CC7CCN(c8cc9c(cc8F)C(=O)C(N8CCC(=O)NC8=O)C9=O)CC7)CC6)N5C)nc4c3F)c12 (stereo partly drawn)
Property Name: IC50
Observed: > 1000 nM

Compound: C#Cc1cccc2cccc(-c3ncc4c(N5CC6CCC(C5)N6)nc(OC[C@H]5C[C@@H](N6CCN(CC7CCC(Nc8ccc9c(c8)C(=O)N(C8CCC(=O)NC8=O)C9=O)CC7)CC6)CN5C)nc4c3F)c12 (stereo partly drawn)
Property Name: IC50
Observed: > 1000 nM

Compound: C#Cc1c(F)ccc2cc(O)cc(-c3ncc4c(N5CC6CCC(C5)N6C(=O)CC(C)C#N)nc(OCC5(CN6CCN(CC7CCN(c8ccc(NC9CCC(=O)NC9=O)cc8F)CC7)CC6)CC5)nc4c3F)c12 (stereo not drawn)
Property Name: IC50
Observed: < 100 nM
